# systemUnderTest: full length G2019 human LRRK2 (Homo sapiens, UniProt Q5S007, R50H)
# Sequence (Q5S007 with tags, fused parts or gaps R50H): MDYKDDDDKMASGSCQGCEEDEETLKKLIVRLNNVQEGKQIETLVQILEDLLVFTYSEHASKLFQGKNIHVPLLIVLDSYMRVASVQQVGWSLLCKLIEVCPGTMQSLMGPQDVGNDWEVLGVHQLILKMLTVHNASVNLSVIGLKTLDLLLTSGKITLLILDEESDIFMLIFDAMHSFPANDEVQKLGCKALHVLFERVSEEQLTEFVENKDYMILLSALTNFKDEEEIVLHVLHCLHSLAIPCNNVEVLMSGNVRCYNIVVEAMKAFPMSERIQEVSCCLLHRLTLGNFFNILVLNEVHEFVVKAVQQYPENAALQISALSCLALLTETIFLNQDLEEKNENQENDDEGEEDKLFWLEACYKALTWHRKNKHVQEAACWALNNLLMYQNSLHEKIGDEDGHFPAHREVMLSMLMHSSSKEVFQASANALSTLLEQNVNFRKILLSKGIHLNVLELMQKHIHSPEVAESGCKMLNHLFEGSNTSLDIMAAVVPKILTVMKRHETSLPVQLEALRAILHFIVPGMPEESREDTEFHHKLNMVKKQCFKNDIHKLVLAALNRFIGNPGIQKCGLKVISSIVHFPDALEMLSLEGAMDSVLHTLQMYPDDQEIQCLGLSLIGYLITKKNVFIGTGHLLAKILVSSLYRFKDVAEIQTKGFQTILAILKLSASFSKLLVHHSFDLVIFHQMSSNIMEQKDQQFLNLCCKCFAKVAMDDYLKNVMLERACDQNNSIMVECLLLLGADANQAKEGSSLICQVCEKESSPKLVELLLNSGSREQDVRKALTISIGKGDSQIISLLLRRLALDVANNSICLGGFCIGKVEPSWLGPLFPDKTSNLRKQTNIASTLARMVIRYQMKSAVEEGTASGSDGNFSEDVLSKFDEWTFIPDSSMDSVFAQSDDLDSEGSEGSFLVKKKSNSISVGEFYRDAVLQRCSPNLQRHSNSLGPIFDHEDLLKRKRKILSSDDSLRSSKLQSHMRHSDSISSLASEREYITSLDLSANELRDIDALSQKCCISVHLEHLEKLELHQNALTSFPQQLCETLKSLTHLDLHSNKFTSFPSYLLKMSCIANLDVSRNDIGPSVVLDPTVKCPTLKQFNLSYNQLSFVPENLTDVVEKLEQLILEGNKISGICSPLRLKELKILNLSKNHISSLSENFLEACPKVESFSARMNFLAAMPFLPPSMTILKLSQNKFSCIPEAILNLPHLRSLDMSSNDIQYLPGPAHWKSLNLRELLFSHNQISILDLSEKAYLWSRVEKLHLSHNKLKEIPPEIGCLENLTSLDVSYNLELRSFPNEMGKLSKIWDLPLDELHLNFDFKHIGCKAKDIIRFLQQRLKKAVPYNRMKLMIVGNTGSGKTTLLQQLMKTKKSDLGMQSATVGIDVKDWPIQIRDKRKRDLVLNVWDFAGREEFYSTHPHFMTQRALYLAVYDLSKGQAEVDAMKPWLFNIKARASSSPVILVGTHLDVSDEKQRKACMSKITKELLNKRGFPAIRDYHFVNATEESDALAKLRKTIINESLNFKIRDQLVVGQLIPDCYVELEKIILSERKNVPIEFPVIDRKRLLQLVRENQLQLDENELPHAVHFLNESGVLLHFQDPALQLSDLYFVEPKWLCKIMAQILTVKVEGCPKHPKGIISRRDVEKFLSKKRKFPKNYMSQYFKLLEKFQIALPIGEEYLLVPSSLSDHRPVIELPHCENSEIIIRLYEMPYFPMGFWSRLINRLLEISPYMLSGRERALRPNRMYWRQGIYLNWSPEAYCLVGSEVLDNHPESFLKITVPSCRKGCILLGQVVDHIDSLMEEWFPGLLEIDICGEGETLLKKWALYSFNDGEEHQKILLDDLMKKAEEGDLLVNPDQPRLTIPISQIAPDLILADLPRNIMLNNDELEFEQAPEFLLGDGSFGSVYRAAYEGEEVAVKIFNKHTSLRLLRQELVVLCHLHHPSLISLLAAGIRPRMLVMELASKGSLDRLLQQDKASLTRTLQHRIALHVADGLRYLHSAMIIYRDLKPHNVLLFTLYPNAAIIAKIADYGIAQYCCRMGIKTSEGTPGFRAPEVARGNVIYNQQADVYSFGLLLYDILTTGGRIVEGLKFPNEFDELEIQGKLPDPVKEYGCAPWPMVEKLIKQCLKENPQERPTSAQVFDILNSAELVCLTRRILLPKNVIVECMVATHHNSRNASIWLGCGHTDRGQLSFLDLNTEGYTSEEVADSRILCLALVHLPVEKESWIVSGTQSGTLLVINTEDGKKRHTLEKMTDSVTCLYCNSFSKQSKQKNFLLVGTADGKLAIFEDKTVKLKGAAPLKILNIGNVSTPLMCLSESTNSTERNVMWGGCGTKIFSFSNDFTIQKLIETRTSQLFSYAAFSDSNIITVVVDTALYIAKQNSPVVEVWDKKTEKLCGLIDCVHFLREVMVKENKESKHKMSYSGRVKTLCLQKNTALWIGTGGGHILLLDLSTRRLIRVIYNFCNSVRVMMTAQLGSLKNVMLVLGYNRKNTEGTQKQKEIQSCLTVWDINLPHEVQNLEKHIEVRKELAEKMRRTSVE
# measurementDescription: Full length G2019 human LRRK2 inhibition mass spectrometry assay
# conditions: LRRKtide to phospho-LRRKtide conversion, RapidFire MS, 2 mM ATP

- compound: "Cc1c2c(nn1C1CCOCC1)OCCC(C)Nc1nc(ncc1Br)N2 (single isomer, unassigned) [E29]"
  IC50: "≤ 10000 nM"
- compound: "Cc1c2c(nn1CCN1CCC(F)C1)OCCC(C)Nc1nc(ncc1Cl)N2 (single isomer, unassigned) [E216]"
  IC50: "100000 nM"
- compound: "Cc1c2c(nn1C1CCOCC1F)OC[C@@H](F)[C@@H](C)Nc1nc(ncc1Cl)N2 (some centres unmarked)"
  IC50: "≤ 100 nM"
- compound: "COC1CNc2nc(ncc2C(F)(F)F)Nc2c(nn(C3CCOCC3)c2C)OC1 (single isomer, unassigned) [E120]"
  IC50: "≤ 10000 nM"
- compound: "C[C@@H]1CCOc2nn(C3CN(C4COC4)C3)c(Cl)c2Nc2ncc(Cl)c(n2)N1"
  IC50: "≤ 100 nM"
- compound: "Cc1c2c(nn1C1CCOCC1)OCCC(C(F)(F)F)Nc1nc(ncc1Cl)N2 (single isomer, unassigned) [E192]"
  IC50: "≤ 100 nM"
- compound: "CCC1CCOc2nn(C3COC3)c(C)c2Nc2ncc(Cl)c(n2)N1 (single isomer, unassigned) [E320]"
  IC50: "≤ 100 nM"
- compound: "Cc1[nH]nc2c1Nc1ncc(Cl)c(n1)NCCCO2"
  IC50: "≤ 100 nM"

---

# systemUnderTest: full length G2019 human LRRK2 (Homo sapiens, UniProt Q5S007, R50H)
# measurementDescription: Full length G2019 human LRRK2 inhibition mass spectrometry assay
# conditions: LRRKtide to phospho-LRRKtide conversion, RapidFire MS, 2 mM ATP
# Experimental: a. Full Length G2019 Human LRRK2 Inhibition Mass Spectrometry Assay […] • 1) Compounds were dissolved in 100% DMSO at a concentration of 10 mM, and 11-point dose response curves generated using a 1 in 4 serial dilution in DMSO. […] Test plates were then analysed on an Agilent RapidFire High Throughput solid phase extraction system coupled to AB Sciex API 4000 triple quadropole mass spectrometer with the following setting: […]
pIC50: −log10 of the molar value.

- compound: "Cc1c2c(nn1C1COC1)OCCCNc1nc(ncc1Br)N2"
  pIC50: "≥ 7.00"
- compound: "Cc1c2c(nn1C1CCOCC1)OCC[C@@H](C)Nc1nc(ncc1Cl)N2"
  pIC50: "≥ 7.00"
- compound: "Cc1c2c(nn1C1CC(N3C[C@H]4C[C@@H]3CO4)C1)OCC[C@@H](C)Nc1nc(ncc1Cl)N2 (some centres unmarked)"
  pIC50: "≥ 7.00"
- compound: "Cc1c2c(nn1C1CCOCC1)OCCNc1nc(ncc1Cl)N2"
  pIC50: "≥ 5.00"
- compound: "Cc1c2c(nn1CCN1C[C@@H]3C[C@H]1CO3)OCCCNc1nc(ncc1Cl)N2 (stereo in doubt)"
  pIC50: "≥ 7.00"
- compound: "Cc1c2c(nn1C1CCC(N3C[C@H]4C[C@@H]3CO4)CC1)OCCC(C)Nc1nc(ncc1Cl)N2 (single isomer, unassigned) [E57]"
  pIC50: "≥ 7.00"
- compound: "COC1CNc2nc(ncc2C(F)(F)F)Nc2c(nn(C3CCCOC3)c2C)OC1 (single isomer, unassigned)"
  pIC50: "≥ 5.00"
- compound: "Cc1c2c(nn1C1CC(N3CCC(F)(F)C3)C1)OCCCNc1nc(ncc1Cl)N2 (centres unmarked)"
  pIC50: 4.00

---

Each record here notes measured IC50.
# systemUnderTest: full length G2019 human LRRK2 (Homo sapiens, UniProt Q5S007, R50H)
# measurementDescription: Full length G2019 human LRRK2 inhibition mass spectrometry assay
# conditions: LRRKtide to phospho-LRRKtide conversion, RapidFire MS, 2 mM ATP
measuredEndpoint: IC50

- compound: "COC1CNc2nc(ncc2Cl)Nc2c(nn(C3CC(C)OC(C)C3)c2C)OC1 (single isomer, unassigned) [E199]"
  reported: "≤ 10 µM"
- compound: "Cc1c2c(nn1CCN1CCC(F)(F)C1)OCCC(C)Nc1nc(ncc1Cl)N2 (single isomer, unassigned) [E214]"
  reported: "≤ 10 µM"
- compound: "COC1CNc2nc(ncc2Cl)Nc2c(nn(CC3(C)COC3)c2C)OC1 (single isomer, unassigned) [E272]"
  reported: "≤ 0.1 µM"
- compound: "Cc1c2c(nn1C1CCOCC1(C)C)OCC[C@@H](C)Nc1nc(ncc1Cl)N2 (stereo partly shown) [E421]"
  reported: "≤ 0.1 µM"

---

Each record here notes measured IC50.
# systemUnderTest: full length G2019 human LRRK2 (Homo sapiens, UniProt Q5S007, R50H)
# measurementDescription: Full length G2019 human LRRK2 inhibition mass spectrometry assay
# conditions: LRRKtide to phospho-LRRKtide conversion, RapidFire MS, 2 mM ATP

- molecule: "COC1CNc2nc(ncc2C(F)(F)F)Nc2c(nn(C3CCOCC3)c2C)OC1 (single isomer, unassigned) [E121]"
  IC50: "≤ 100 nM"
- molecule: "Cc1c2c(nn1C1CCCOC1)OCCCNc1cc(ncc1Cl)N2 (centres unmarked)"
  IC50: "≤ 100 nM"
- molecule: "Cc1c2c(nn1C(C)C1CCOCC1)OCCC(C)Nc1nc(ncc1Cl)N2 (single isomer, unassigned) [E185]"
  IC50: "≤ 10000 nM"
- molecule: "Cc1c2c(nn1CCN1C[C@H]3C[C@@H]1CO3)OCCC(C)Nc1nc(ncc1Cl)N2 (single isomer, unassigned) [E209]"
  IC50: "≤ 10000 nM"
- molecule: "Cc1c2c(nn1C1CN(C3COC3)CCC1F)OCC[C@@H](C)Nc1nc(ncc1Cl)N2 (single isomer, unassigned) [E404]"
  IC50: "≤ 100 nM"
- molecule: "Cc1c2c(nn1C1CC(N3C[C@@H]4C[C@H]3CO4)C1)OCCCNc1nc(ncc1Cl)N2 (some centres unmarked)"
  IC50: "≤ 100 nM"
- molecule: "Cc1c2c(nn1C(C)(C)C#N)OCCCNc1nc(ncc1Cl)N2"
  IC50: "≤ 100 nM"
- molecule: "N#Cc1cnc2nc1NCCCOc1n[nH]c(Cl)c1N2"
  IC50: "≤ 10000 nM"

---

# systemUnderTest: LRRK2 kinase in SH-SY5Y cells over-expressing recombinant full length LRRK2 (Homo sapiens, UniProt Q5S007)
# Construct: A BacMam virus expressing full length recombinant LRRK2 was purchased from Invitrogen
# Sequence (Q5S007 whole entry): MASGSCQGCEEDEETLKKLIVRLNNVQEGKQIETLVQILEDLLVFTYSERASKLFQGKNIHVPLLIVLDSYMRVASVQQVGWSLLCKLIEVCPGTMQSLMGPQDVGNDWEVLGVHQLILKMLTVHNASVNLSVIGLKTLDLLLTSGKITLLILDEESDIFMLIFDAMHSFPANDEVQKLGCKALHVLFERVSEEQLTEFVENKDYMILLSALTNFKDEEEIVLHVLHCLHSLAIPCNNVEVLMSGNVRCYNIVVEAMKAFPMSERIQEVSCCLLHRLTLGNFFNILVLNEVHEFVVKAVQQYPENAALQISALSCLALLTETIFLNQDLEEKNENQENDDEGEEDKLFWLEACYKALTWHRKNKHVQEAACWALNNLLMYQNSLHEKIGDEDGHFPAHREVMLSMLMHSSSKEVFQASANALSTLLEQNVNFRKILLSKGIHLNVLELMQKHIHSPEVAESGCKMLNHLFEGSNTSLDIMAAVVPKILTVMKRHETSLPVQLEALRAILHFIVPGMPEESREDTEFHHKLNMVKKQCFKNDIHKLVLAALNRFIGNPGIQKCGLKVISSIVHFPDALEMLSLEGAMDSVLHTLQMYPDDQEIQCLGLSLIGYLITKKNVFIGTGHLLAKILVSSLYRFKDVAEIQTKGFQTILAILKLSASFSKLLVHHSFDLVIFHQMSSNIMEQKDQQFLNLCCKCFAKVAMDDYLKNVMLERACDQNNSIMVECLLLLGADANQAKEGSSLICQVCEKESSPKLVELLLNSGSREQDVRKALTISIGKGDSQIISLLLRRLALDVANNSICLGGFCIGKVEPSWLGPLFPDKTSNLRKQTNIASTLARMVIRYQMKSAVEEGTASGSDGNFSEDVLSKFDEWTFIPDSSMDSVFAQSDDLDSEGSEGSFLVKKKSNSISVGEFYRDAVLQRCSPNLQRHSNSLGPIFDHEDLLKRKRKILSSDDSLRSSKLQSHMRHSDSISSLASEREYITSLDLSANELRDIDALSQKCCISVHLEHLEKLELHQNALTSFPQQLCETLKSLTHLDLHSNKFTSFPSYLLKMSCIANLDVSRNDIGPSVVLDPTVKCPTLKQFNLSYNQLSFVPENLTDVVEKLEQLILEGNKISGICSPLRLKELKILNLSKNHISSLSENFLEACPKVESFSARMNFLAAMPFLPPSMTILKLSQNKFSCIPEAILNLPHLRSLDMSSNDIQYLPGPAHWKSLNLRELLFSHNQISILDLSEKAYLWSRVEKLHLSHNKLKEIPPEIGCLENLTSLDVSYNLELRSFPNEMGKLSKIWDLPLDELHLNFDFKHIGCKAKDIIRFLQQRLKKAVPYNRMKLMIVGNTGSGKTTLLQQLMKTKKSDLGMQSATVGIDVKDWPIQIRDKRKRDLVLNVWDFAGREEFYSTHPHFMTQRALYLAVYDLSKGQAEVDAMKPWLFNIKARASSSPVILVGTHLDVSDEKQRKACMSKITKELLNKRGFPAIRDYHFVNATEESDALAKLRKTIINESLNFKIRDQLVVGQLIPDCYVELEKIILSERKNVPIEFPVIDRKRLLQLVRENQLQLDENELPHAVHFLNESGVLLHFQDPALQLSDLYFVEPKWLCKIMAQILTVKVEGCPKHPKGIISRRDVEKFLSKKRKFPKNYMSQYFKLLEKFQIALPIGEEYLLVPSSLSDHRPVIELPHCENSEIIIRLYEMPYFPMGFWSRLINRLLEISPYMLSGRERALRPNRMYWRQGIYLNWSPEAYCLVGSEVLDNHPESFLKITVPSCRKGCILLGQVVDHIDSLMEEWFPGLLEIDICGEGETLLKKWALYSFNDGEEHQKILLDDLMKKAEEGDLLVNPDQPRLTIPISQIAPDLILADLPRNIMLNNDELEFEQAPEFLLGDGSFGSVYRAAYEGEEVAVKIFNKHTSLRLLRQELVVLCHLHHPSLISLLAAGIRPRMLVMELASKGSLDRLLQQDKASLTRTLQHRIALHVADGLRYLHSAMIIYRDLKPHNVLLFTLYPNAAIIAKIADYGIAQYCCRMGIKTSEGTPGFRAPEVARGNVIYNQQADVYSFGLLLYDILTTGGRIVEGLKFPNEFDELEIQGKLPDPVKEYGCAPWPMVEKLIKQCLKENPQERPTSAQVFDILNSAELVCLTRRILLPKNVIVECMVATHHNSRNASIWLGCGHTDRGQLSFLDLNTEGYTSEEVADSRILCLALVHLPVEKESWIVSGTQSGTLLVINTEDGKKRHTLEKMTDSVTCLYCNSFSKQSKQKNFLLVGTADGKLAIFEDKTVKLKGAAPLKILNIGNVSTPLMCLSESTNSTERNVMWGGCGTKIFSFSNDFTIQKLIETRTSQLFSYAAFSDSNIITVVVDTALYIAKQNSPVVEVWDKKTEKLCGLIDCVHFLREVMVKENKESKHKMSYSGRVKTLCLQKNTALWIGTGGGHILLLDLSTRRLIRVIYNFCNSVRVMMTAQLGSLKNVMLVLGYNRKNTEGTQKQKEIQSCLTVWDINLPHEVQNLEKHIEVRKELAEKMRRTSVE
# measurementDescription: Recombinant cellular LRRK2 AlphaScreen assay (LRRK2 Ser935 phosphorylation)
# conditions: 60 min
pIC50: −log10 of the molar value.

- compound: "COC1CNc2nc(ncc2Cl)Nc2c(nn(C3CCOCC3)c2Cl)OC1 (single isomer, unassigned) [E341]"
  pIC50: "≥ 7.00"
- compound: "CC1CCOc2nn(C3CCOCC3)c(Cl)c2Nc2ncc(Cl)c(n2)N1 (stereo not drawn)"
  pIC50: "≥ 7.00"
- compound: "Cc1c2c(nn1C1CCOCC1C)OCCCNc1nc(ncc1Cl)N2 (single isomer, unassigned) [E412]"
  pIC50: "≥ 7.00"
- compound: "Cc1c2c(nn1C(C)(C)CO)OCC[C@@H](C)Nc1nc(ncc1Cl)N2"
  pIC50: "≥ 7.00"
- compound: "Cc1c2c(nn1CCN1C[C@@H]3C[C@H]1CO3)OCCCNc1nc(ncc1Cl)N2 (stereo in doubt)"
  pIC50: "≥ 7.00"
- compound: "N#Cc1cnc2nc1NCCCOc1nn(C3CCOCC3)c(Cl)c1N2"
  pIC50: "≥ 7.00"

---

# systemUnderTest: full length G2019 human LRRK2 (Homo sapiens, UniProt Q5S007, R50H)
# measurementDescription: Full length G2019 human LRRK2 inhibition mass spectrometry assay
# conditions: LRRKtide to phospho-LRRKtide conversion, RapidFire MS, 2 mM ATP
# Experimental: a. Full Length G2019 Human LRRK2 Inhibition Mass Spectrometry Assay […] • 1) Compounds were dissolved in 100% DMSO at a concentration of 10 mM, and 11-point dose response curves generated using a 1 in 4 serial dilution in DMSO. […] Test plates were then analysed on an Agilent RapidFire High Throughput solid phase extraction system coupled to AB Sciex API 4000 triple quadropole mass spectrometer with the following setting: […]
Each record here notes measured IC50.

- compound: "Cc1c2c(nn1C1CCOCC1F)OCCC(C)Nc1nc(ncc1Cl)N2 (single isomer, unassigned) [E26]"
  systemUnderTest: "full length G2019 human LRRK2 (Homo sapiens, UniProt Q5S007, R50H)"
  IC50: "≤ 10000 nM"
- compound: "Cc1c2c(nn1C1CCC(C)CC1)OCCC(C)Nc1nc(ncc1Cl)N2 (single isomer, unassigned) [E260]"
  systemUnderTest: "full length G2019 human LRRK2 (Homo sapiens, UniProt Q5S007, R50H)"
  IC50: "≤ 100 nM"
- compound: "Cc1c2c(nn1C1CCOCC1)OCCCNc1nc(ncc1Cl)N2 [E1]"
  systemUnderTest: "full length G2019 human LRRK2 (Homo sapiens, UniProt Q5S007, R50H)"
  IC50: "≤ 100 nM"
- compound: "Cc1c2c(nn1C1CCOCC1)OCCCNc1nc(ncc1C(C)C)N2 [E428]"
  systemUnderTest: "full length G2019 human LRRK2 (Homo sapiens, UniProt Q5S007, R50H)"
  IC50: "≤ 10000 nM"
- compound: "C=Cc1cnc2nc1N[C@H](C)CCOc1nn(C3CCOCC3)c(C)c1N2 [E389]"
  systemUnderTest: "full length G2019 human LRRK2 (Homo sapiens, UniProt Q5S007, R50H)"
  IC50: "≤ 100 nM"
- compound: "COC1CNc2nc(ncc2Cl)Nc2c(nn(CC3CCOCC3)c2C)OC1 (single isomer, unassigned) [E275]"
  systemUnderTest: "full length G2019 human LRRK2 (Homo sapiens, UniProt Q5S007, R50H)"
  IC50: "≤ 10000 nM"
- compound: "Cc1c2c(nn1C1CCOCC1)OCC(F)(F)CNc1nc(ncc1Cl)N2 [E377]"
  systemUnderTest: "full length G2019 human LRRK2 (Homo sapiens, UniProt Q5S007, R50H)"
  IC50: "≤ 100 nM"
- compound: "FC(F)(F)c1c2c(nn1C1CCOCC1)OCCCNc1nc(ncc1Cl)N2 [E424]"
  systemUnderTest: "full length G2019 human LRRK2 (Homo sapiens, UniProt Q5S007, R50H)"
  IC50: "≤ 100 nM"
- compound: "Cc1c2c(nn1C1CCCOC1)OCC(C)CNc1nc(ncc1Cl)N2 (single isomer, unassigned) [E306]"
  systemUnderTest: "full length G2019 human LRRK2 (Homo sapiens, UniProt Q5S007, R50H)"
  IC50: "≤ 100 nM"
